Cited source for all entries: patent US20030215462A1

# study.system: UGT1A3 (Homo sapiens)
# Sequence (P35503 29-534): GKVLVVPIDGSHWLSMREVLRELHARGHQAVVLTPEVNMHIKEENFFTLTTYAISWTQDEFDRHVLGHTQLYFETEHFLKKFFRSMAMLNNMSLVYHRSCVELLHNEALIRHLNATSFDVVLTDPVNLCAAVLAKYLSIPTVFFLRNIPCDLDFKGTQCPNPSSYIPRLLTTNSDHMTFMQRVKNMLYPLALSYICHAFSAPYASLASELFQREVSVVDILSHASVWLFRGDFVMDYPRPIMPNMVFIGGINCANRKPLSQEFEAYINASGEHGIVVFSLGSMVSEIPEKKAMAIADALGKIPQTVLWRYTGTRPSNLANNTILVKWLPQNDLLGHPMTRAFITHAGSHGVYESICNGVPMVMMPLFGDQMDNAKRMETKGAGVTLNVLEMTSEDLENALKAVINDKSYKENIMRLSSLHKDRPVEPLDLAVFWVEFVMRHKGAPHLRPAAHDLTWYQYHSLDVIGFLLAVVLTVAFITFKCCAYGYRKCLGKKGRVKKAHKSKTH
# assay.explanation: Inhibition of raloxifene glucuronidation by recombinant UGT1A3 Supersomes
# experimental.context: human, Supersomes with recombinant human UGT1A3, pH 7.5, probe raloxifene 50 μM, formation of glucuronide G2, % of control metabolism, raloxifene G2, UGT1A3; inhibitor 50 μM

{"columns": ["molecule", "activity at 15 min, 50 µM"],
 "data": [
  ["O=C(O[C@@H]1Cc2c(O)cc(O)cc2O[C@H]1c1cc(O)c(O)c(O)c1)c1cc(O)c(O)c(O)c1 [Gallocatechin gallate]", "38%"],
  ["CC/C(=C(/CC)c1ccc(O)cc1)c1ccc(O)cc1 [Diethylstilbestrol, reference compound]", "21%"],
  ["CCCCCCCCOC(=O)c1cc(O)c(O)c(O)c1 [Octyl gallate]", "13%"],
  ["O=C(OC[C@H]1O[C@@H](OC(=O)c2cc(O)c(O)c(OC(=O)c3cc(O)c(O)c(O)c3)c2)[C@H](OC(=O)c2cc(O)c(O)c(OC(=O)c3cc(O)c(O)c(O)c3)c2)[C@@H](OC(=O)c2cc(O)c(O)c(OC(=O)c3cc(O)c(O)c(O)c3)c2)[C@@H]1OC(=O)c1cc(O)c(O)c(OC(=O)c2cc(O)c(O)c(O)c2)c1)c1cc(O)c(O)c(OC(=O)c2cc(O)c(O)c(O)c2)c1", "5%"],
  ["O=c1c(O)c(-c2ccc(O)c(O)c2)oc2cc(O)cc(O)c12", "25%"]
]}
